Assay: Evaluation of the pharmacokinetics in female Balb/c mice (IV and PO)
Format: in vivo
Conditions: mouse, plasma; IV 0.2 mg/kg, female Balb/c mice
Counter-ions that a name gives are not always drawn.
measured-metric: half-life
Put down the number, then write its unit next to it.

[
  {
    "compound": "Cn1cc(-c2ccn3c(-c4cc(NS(C)(=O)=O)nc(-c5ccc(F)cc5F)c4)cnc3c2)cn1 [Trifluoroacetate salt of compound 7]",
    "half-life": "58.1 min"
  }
]

// next item, half-life requested
Q. # input compound: Cn1cc(-c2ccc3c(c2)ncn3-c2cc(NS(=O)(=O)C3CC3)cc(-c3ccc(F)cc3F)c2)cn1 [Trifluoroacetate of compound A, reference compound] ; wanted: its half-life
A. 64.8 min

* * *

Test: Evaluation of the pharmacokinetics in female Balb/c mice (IV and PO)
Assay type: in vivo
Settings: mouse, plasma; PO 10 mg/kg vs IV 2 mg/kg, female Balb/c mice; read-out: F (bioavailability)
Structures can show the parent of a compound that is named as a salt.
measured-metric: bioavailability (%)
Lab book: enter the figure in %, no units written.

Q. # input molecule: Cn1cc(-c2ccn3c(-c4cc(NS(=O)(=O)C5CC5)nc(-c5ccc(F)cc5F)c4)cnc3c2)cn1 [Trifluoroacetate salt of compound 1] ; wanted: its bioavailability
A. 39.4

* * *

Assay: Evaluation of the pharmacokinetics in female Balb/c mice (IV and PO)
Format: in vivo
Conditions: mouse, plasma; PO 1 mg/kg, female Balb/c mice
Counter-ions that a name gives are not always drawn.
Some molecules, each annotated with its measured AUC(0-inf).
Put down the number, then write its unit next to it.

[
  {
    "molecule": "Cn1cc(-c2ccn3c(-c4cc(NS(C)(=O)=O)nc(-c5ccc(F)cc5F)c4)cnc3c2)cn1 [Trifluoroacetate salt of compound 7]",
    "result": "2.58 µM·h"
  }
]

Q. # input molecule: Cn1cc(-c2ccc3c(c2)ncn3-c2cc(NS(=O)(=O)C3CC3)cc(-c3ccc(F)cc3F)c2)cn1 [Trifluoroacetate of compound A, reference compound] ; wanted: its AUC(0-inf)
A. 1.44 µM·h

* * *

Some molecules, each annotated with its measured IC50.
Target: human FGFR2 (Homo sapiens (Human))
Sequence (P21802 22-821): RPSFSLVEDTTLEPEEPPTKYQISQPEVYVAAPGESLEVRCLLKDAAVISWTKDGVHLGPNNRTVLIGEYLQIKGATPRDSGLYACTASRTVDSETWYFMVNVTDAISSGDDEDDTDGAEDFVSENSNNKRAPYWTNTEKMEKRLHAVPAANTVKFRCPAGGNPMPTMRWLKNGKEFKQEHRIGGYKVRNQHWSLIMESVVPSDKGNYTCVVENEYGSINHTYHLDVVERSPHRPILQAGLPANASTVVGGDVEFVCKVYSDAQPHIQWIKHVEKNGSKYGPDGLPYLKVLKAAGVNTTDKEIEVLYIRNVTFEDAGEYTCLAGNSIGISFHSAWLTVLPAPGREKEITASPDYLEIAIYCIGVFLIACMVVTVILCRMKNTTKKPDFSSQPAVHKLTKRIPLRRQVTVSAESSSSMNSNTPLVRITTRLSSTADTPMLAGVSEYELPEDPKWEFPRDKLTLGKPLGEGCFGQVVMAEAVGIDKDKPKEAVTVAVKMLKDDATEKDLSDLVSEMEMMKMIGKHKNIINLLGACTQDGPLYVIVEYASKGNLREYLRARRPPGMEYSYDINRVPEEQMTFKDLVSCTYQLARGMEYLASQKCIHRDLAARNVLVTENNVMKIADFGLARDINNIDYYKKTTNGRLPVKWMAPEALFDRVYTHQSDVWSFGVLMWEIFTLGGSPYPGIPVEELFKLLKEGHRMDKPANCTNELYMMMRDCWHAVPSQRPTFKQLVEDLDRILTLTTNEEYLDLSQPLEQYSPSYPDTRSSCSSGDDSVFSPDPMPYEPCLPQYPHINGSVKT
Structures can show the parent of a compound that is named as a salt.
Lab book: enter the figure in nM, no units written.

[
  {
    "molecule": "CCS(=O)(=O)Nc1cc(-c2cnc3cc(-c4cnn(C)c4)ccn23)cc(-c2ccc(F)cc2F)n1 [Trifluoroacetate salt of compound 6]",
    "experimental-system": "human FGFR2 (Homo sapiens (Human))",
    "numeric-result": 7.36
  },
  {
    "molecule": "Cc1cc(F)ccc1-c1cc(-c2cnc3cc(-c4cnn(C)c4)ccn23)cc(NS(=O)(=O)C2CC2)n1 [Trifluoroacetate salt of compound 2]",
    "experimental-system": "human FGFR2 (Homo sapiens (Human))",
    "numeric-result": 46.1
  }
]

Q. Checklist item: IC50 tested on human FGFR2 (Homo sapiens (Human)), entry CCCS(=O)(=O)Nc1cc(-c2cnc3cc(-c4cnn(C)c4)ccn23)cc(-c2ccc(F)cc2F)n1 [Trifluoroacetate salt of compound 8] , value?
A. 7.18

* * *

Experiment: Evaluation of the pharmacokinetics in female Balb/c mice (IV and PO)
Type: in vivo
Details: mouse, plasma; PO 1 mg/kg, female Balb/c mice
Counter-ions that a name gives are not always drawn.
Some compounds, each annotated with its measured AUC(0-t).

[
  {
    "compound": "Cn1cc(-c2ccc3c(c2)ncn3-c2cc(NS(=O)(=O)C3CC3)cc(-c3ccc(F)cc3F)c2)cn1 [Trifluoroacetate of compound A, reference compound]",
    "AUC(0-t)": "1.41 µM·h"
  }
]

Q. # input compound: Cn1cc(-c2ccn3c(-c4cc(NS(C)(=O)=O)nc(-c5ccc(F)cc5F)c4)cnc3c2)cn1 [Trifluoroacetate salt of compound 7] ; wanted: its AUC(0-t)
A. 2.53 µM·h
